test: soluble on expression in E. coli; label from the status in PepcDB or PDB records
Readout type: soluble on expression in E. coli

A selection of reference data follows.
Biopolymer sequence | soluble on expression in E. coli
EVKLVESGGGLVKPGGSLKLSCAASGFTFNNYVMVWLRQTPEKRLEWVASISRGGSTYYPDSVKGRFTISRDNARNILYLQMSSLRSEDTAMYYCVRGTTIVAGDVWGAGTTVTVSSAKTTPPSVYPLAPGSAAQTNSMVTLGCLVKGYFPEPVTVTWNSGSLSSGVHTFPAVLQSDLYTLSSSVTVPSSTWPSETVTCNVAHPASSTKVDKKIVPRDC | soluble
MNTTVEKQQIITSNTEQWKMYSKLEGKEYQIHISKPKQPAPDSGYPVIYVLDGNAFFQTFHEAVKIQSVRAEKTGVSPAIIVGVGYPIEGAFSGEERCYDFTPSVISKDAPLKPDGKPWPKTGGAHNFFTFIEEELKPQIEKNFEIDKGKQTLFGHSLGGLFALHILFTNLNAFQNYFISSPSIWWNNKSVLEKEENLIIELNNAKFETGVFLTVGSLEREHMVVGANELSERLLQVNHDKLKFKFYEAEGENHASVVPTSLSKGLRFISYV | soluble
MGSSHHHHHHSSGLVPRGSRHSTLDFMLGAKADGETILKGLQSIFQEQGMAESVHTWQDHGYLATYTNKNGSFANLRIYPHGLVLLDLQSYDGDAQGKEEIDSILNKVEERMKELSQDSTGRVKRLPPIVRGGAIDRYWPTADGRLVEYDIDEVVYDEDSPYQNIKILHSKQFGNILILSGDVNLAESDLAYTRAIMGSGKEDYTGKDVLILGGGDGGILCEIVKLKPKMVTMVEIDQMVIDGCKKYMRKTCGDVLDNLKGDCYQVLIEDCIPVLKRYAKEGREFDYVINDLTAVPISTSPEEDSTWEFLRLILDLSMKVLKQDGKYFTQGNCVNLTEALSLYEEQLGRLYCPVEFSKEIVCVPSYLELWVFYTVWKKAKP | soluble
ITDHNTLSGVSKMVEACKINKRFLNNKCPQILAGIEISCSDKHHVVVILNNKDMDMMQKAEDWLTNYIISDDGTYLPSLLVIEAFVEIGAIAYIAHFNTSDLFKKPKFLSGLYIDKLFSTKKMEIIGLSNMDSKLAIEEKLSNYTKRKFHFILDEDSHTLEELCTKPFWIK | not soluble
MTTDQIAAFCLQLPGAREDLKWGSNRVFSVAGNKMFAILDFVDKDGGLAFKVGSELFLGYVDRPGIRPAPYLARAHWIVMARPYPMKAAELREALVRSHQLVVARLPKRQRLGLVLDA | not soluble
SQPLLDRSIPDFTAFTTVDDWLSAIKMVQYRDSFLTAGFTSLQLVTQMTSEDLLRIGITLAGHQKKILNSIHSMRVQISQSPTAMA | soluble

Now for a further sequence.
## Input Endpoint output: soluble on expression in E. coli of DVQLVESGGGSVQAGGSLRLSCAVSGYKDRNYCMGWFRRAPGKEREGVAVIDSSGRTAYADSVKGRFTISRDVALDTAYLQMNSLKPEDTAMYYCAAGWSSLGSCGTNRNRYNYWGQGTQVTVSSRGRHHHHHH . Value?
## Output soluble

---

assay: soluble on expression in E. coli; label from the status in PepcDB or PDB records
Readout type: soluble on expression in E. coli

Record excerpt, results attached:
Biopolymer sequence | Readout type | Readout value
MAPTQAQKVLEAFEDFLKCLDLESYQEKYRPIKTVEQDLPRELNPLPDLYDHYWKPNGNTLHFPDFETFFDQWWEKRLRPLNEFIRKYFWGCSYEFVRLGLEARLYRTAVSIWTQFHFCYRWNASCQLRLTATWELDAQGIDAQIQAEDRLIGIQIKKETYRSEAREGNRFLRRREHSALLEVPYTLQSPEELERKAQRARTREEAYRLWVKIAHHLERLPNGFVIFRESYVKDLENFLKQNATTLSGLIPWDKVAREALTGP | soluble on expression in E. coli | soluble
MIKFSATLLATLIAASVNAATVDLRIMETTDLHSNMMDFDYYKDAATEKFGLVRTASLIEQARAEVKNSVLVDNGDVIQGSPLGDYMAAKGLKEGDVHPVYKAMNTLNYAVGNLGNHEFNYGLDFLHKALAGAKFPYVNANIIDAKTGKPMFTPYLIQDTRVVDSDGQIHTLRIGYIGFVPPQIMTWDKANLNGKVTVNDITETARKYIPEMRAKGADVVVVVAHSGLSADPYQAMAENSVYYLSQVPGVDAIMFGHAHAVFPGKDFANIKGADIAKGTLNGVPAVMPGMWGDHLGVVDLVLNNDSGKWQVTQSKAEARPIYDAVAKKSLAAEDGKLVSVLKADHDATREFVSK | soluble on expression in E. coli | not soluble
MSRGSGILPDESMFAEFKRQCLSTENWVNKYDKNDMEVWVEQAPLSASINNKGNYSKVHKIRCQINIKDVSAATMYDVLHDGQYRKTWDPTMLESFDIARLAHNADVGYYSWICPKPLKNRDVVTLRSWQASENEYVIINFSVKHPKYPPRKDLVRAVSLMTGYLIKPTGPQSCIFTYLSQADPKGSLPKWVVNKASQVLAPKVLRSAHKAGQNYPAWKAANSPDHKPWLYPIQSELAMMDPAELSIQRGDSLENVDESSTRDAQENEDSS | soluble on expression in E. coli | not soluble
MSLVRGVLKRSKFRKMIRRAKVGDAKYIYELLTEFAKRGILLPRSLNSIYENIRDFWVYEKDGKVVGCVALHVMWEDLAEIRSLAVKEEYQKEGIGRELVIRALEDAWELGIKKVFSLTYVKEFFKKLGFKEIDKSVLPHKVWGECINCVKFPNCDEEAVLVELSEEYIKKLKEGEKISSLLPEGHHHHHH | soluble on expression in E. coli | soluble
MFQNLLENSKKFWIVLEPYGKFKKMLLRDLRGETHRGETRRGETRRGETHRGETHRGETHRGETHRGETHRGETHRGETYRGETHRGETHRGETHRGKTQNFGGKFKFSVKNILAGNLNFLKKIFWREI | soluble on expression in E. coli | not soluble
MGSDKIHHHHHHMDIRHLRYFVSIVDNDFNLSRASLNLYVSQPALSMMISDFENKEGVQLFKRAQGKIVGLTYVGENYYRDAKEVIKKYNEMHSNLHKSIEQIKGHISIGIPPLILSVVFSEVMPKLILNNPEINFTIKELGAYLLKSDLLLENIDFAVLLNPERISKNIIESYEIHRSELSLFLSPKHHLSAKENITWRDLHGEKIVIFDQTFMIHHQLVESFERHNVYPNIVLKSSSWDFLLYSVKINESLLTILPLPMYEQYKSTEFICRRMEEAIPWSVTLCRLKKNCYTNVEEYIFDSLLKAFKP | soluble on expression in E. coli | not soluble

## Input Would you mind telling me what soluble on expression in E. coli value was observed for ASNSQLNAMAHQIQEMFPQVPYHLVLQDLQLTRSVEITTDNILEGRIQVPF ?
## Output soluble

## Input May I ask what soluble on expression in E. coli has been recorded for MLEQLPYLALKTPPKTTALLKAECADFIVKEHLGYEMSGDGEFVALYVRKTDCNTLFVGEKLAKFAGVSERNMGYAGLKDRRAVTEQWFCLQMPGMETPDFSQFELDGVEILTVTRHNRKIRTGSLEGNYFDILLRGAEESDELKARLDFVANFGFPNYFTEQRFGRDGHNLTQALRWAQGEIKVKDRKKRSFYLSAARSEIFNLVVAARIEKSTINQVLPNDIVQLAGSHSWFKADEKEDLTALQVRLENQDILLTAPLIGEDILAASEIENEIVNQHSAFDPLMKQERMKAARRPLLMKAKGFSWAFEPEGLRLKFYLPAGSYATALVRELVNYTEE ?
## Output soluble

## Input Look up soluble on expression in E. coli: MGSDKIHHHHHHMKLGVNLCFAVKRWLEPDRLAGLVRDDLGLEYVQYTYDLTDPWWPDIERDRRAIAYAKAFRKAGLTIESTFGGLASYTYNHFLAPTLELQSLGYQHLKRAIDMTAAMEVPATGMPFGSYSAADALNPARREEIYAIARDMWIELAAYAKRQGLSMLYVEPVPLATEFPSSAADAARLMADLDGRTEIPVRLLVDWGHALFEPLFGPEADMDHWMDLCQPWIAAYHIQQTDGQLDRHWSFTQPGVVTPQRLQDFWDKYALTDQTFFAEILYPFEARDEDVLADMIASVKALKAASPAA
## Output not soluble

## Input Give its soluble on expression in E. coli value. Item: MAHHHHHHMSRFPEARKQSVQVTRHCGIASQLVTEVNGRNLTHLSVLEQEMLASSNVTEHSRQMMDVVQDPKTDIDDALRMVMLYALRYEKVGGNNTAQLKEMLLKRNCPMERISLIDRLLEYGGADKRLHELFRTSTGHILKIVAKTVGQFGKDIQNVLTQHVPLMKKVINRVYNGTLSEQKYPVQEVVGSPISVSAVPTIRAKDIIIVMVGGVTYSEAMLLYQINQGQVSNNVESLMNLGKNVTRLVSGDSTAKSASGEPYTEKIEARVTLLSTSMIDSKDFIHSLPS
## Output not soluble

## Input Recorded soluble on expression in E. coli for MSTHGSLSEVERFNLLYKSSFNKVCNFACFYVRNKQASEDITMDAFLQLLETMKVESVDNPMALLITIVKHKSLDYLKTQVRREDTKDDLIQWKQRELAIRISNLEGCNPSYIFSQEIKSIVMKTLNQLPEQTKKVFIMNRFENKSGKEIAQTLGISVKGVDYHMNKALKELRAALKDYLPILTWLCFMNPINKG , please?
## Output not soluble

## Input What does the record list as soluble on expression in E. coli for MHKRFAALAAPLLYLACASAQADTMRCGSALVSVGDRAFEVQQKCGDPDHRDDVGYTLGSYDRREFKVEEWVYGPRNGVTYILTFEANKLKRIEFKR ?
## Output not soluble

Data credit: the DeepSol protein solubility set
